Tested on: RFX 393
Test: NCI 60 cell line single-dose growth inhibition (SRB)
Type: cell-based, human
Conditions: 10 µM; kidney carcinoma cell line RFX 393
reportedEndpoint: GI %
# output: number + unit

Example results:
[
  {
    "smilesText": "CCOC(=O)c1c(Nc2ccccc2)nn2c(-c3ccc(Br)cc3)ccnc12",
    "GI %": "112.34%"
  },
  {
    "smilesText": "CCOC(=O)c1c(Nc2ccccc2)nn2c(-c3ccc(OC)cc3)ccnc12",
    "GI %": "102.68%"
  },
  {
    "smilesText": "CCOC(=O)c1c(Nc2ccccc2)nn2c(-c3ccc([N+](=O)[O-])cc3)ccnc12",
    "GI %": "52.08%"
  },
  {
    "smilesText": "CCOC(=O)c1c(Nc2ccccc2)nn2c(-c3ccc4ccccc4c3)ccnc12",
    "GI %": "81.71%"
  },
  {
    "smilesText": "COc1ccc(-c2ccnc3c(C#N)c(Nc4ccccc4)nn23)cc1OC",
    "GI %": "84.17%"
  }
]

# batch: return GI % for each of the 2 compounds below
1. CCOC(=O)c1c(Nc2ccccc2)nn2c(-c3ccc(Cl)cc3)ccnc12
2. CCOC(=O)c1c(Nc2ccccc2)nn2c(-c3cccs3)ccnc12

Out:
1. 110.55%
2. 106.08%
